assay: Inhibition of beta-hematin polymerization; set-up: species or system Plasmodium falciparum
value_kind: IC50 (equivalents)

> print(dat)
                                   compound    unit.info  numeric.value
1  CC1SCN(CCNc2ccnc3cc(Cl)ccc23)C1=O (stereo not given)  equivalents           1.05
2  O=C1c2ccccc2SC(c2c(Cl)cccc2Cl)N1CCNc1ccnc2cc(Cl)ccc12 (stereo not given)  equivalents           0.49
3  O=C1c2ccccc2SC(c2c(Cl)cccc2Cl)N1CCCCNc1ccnc2cc(Cl)ccc12 (stereo not given)  equivalents           0.97
4  O=C1CCSC(c2c(Cl)cccc2Cl)N1CCNc1ccnc2cc(Cl)ccc12 (stereo not given)  equivalents           0.45

[I] O=C1CCSC(c2c(Cl)cccc2Cl)N1CCCNc1ccnc2cc(Cl)ccc12 (stereo not given)
[II] O=C1CSC(c2ccc(Cl)cc2)N1CCCNc1ccnc2cc(Cl)ccc12 (stereo not given)
IN: # query: argmin of IC50 over I and II Mark your answer with the label of the selected entry.
OUT: II

* * *

assay: Inhibition of beta-hematin polymerization; set-up: species or system Plasmodium falciparum
value_kind: IC50 (equivalents)

Worked examples follow.
> print(dat)
                                    molecule  value.kind  numeric.value
 1  O=C1CSC(c2ccc(Cl)cc2)N1CCNc1ccnc2cc(Cl)ccc12 (centres undefined)        IC50           0.75
 2  O=C1CCSC(c2ccc(Cl)cc2)N1CCNc1ccnc2cc(Cl)ccc12 (centres undefined)        IC50           0.47
 3  O=C1c2ccccc2SC(c2ccc(Cl)cc2)N1CCNc1ccnc2cc(Cl)ccc12 (centres undefined)        IC50           0.24
 4          O=C1CSCN1CCCCNc1ccnc2cc(Cl)ccc12        IC50           0.91
 5  O=C1CSC(c2c(Cl)cccc2Cl)N1CCCCNc1ccnc2cc(Cl)ccc12 (centres undefined)        IC50           0.64
 6    O=C1c2ccccc2SCN1CCCNc1ccnc2cc(Cl)ccc12        IC50           0.78
 7  CC1SCN(CCCNc2ccnc3cc(Cl)ccc23)C1=O (centres undefined)        IC50           1.02
 8  O=C1c2ccccc2SC(c2c(Cl)cccc2Cl)N1CCCNc1ccnc2cc(Cl)ccc12 (centres undefined)        IC50           0.65
 9  O=C1CCSC(c2ccc(Cl)cc2)N1CCCNc1ccnc2cc(Cl)ccc12 (centres undefined)        IC50           0.62
10  O=C1c2ccccc2SC(c2ccc(Cl)cc2)N1CCCCNc1ccnc2cc(Cl)ccc12 (centres undefined)        IC50           0.95

[1] O=C1c2ccccc2SCN1CCCCNc1ccnc2cc(Cl)ccc12
[2] O=C1CCSC(c2c(Cl)cccc2Cl)N1CCCCNc1ccnc2cc(Cl)ccc12 (centres undefined)
IN: Which numeric IC50 is bigger, that of 1 or that of 2 ? Give the label under which the chosen entry appears.
OUT: 1
(1: 0.89 equivalents, 2: 0.58 equivalents)

[A] O=C1CCSCN1CCCCNc1ccnc2cc(Cl)ccc12
[B] O=C1c2ccccc2SC(c2ccc(Cl)cc2)N1CCCNc1ccnc2cc(Cl)ccc12 (centres undefined)
IN: Pick the one with the larger IC50: A vs B Indicate which entry you chose by stating its label.
OUT: A

* * *

assay: Inhibition of beta-hematin polymerization; set-up: species or system Plasmodium falciparum
value_kind: IC50 (equivalents)

> print(dat)
                                    compound  numeric.value
 1  O=C1CCSC(c2ccc(Cl)cc2)N1CCCCNc1ccnc2cc(Cl)ccc12 (stereo not given)           0.76
 2  O=C1CSC(c2c(Cl)cccc2Cl)N1CCNc1ccnc2cc(Cl)ccc12 (stereo not given)           0.46
 3          O=C1CCSCN1CCCNc1ccnc2cc(Cl)ccc12           0.96
 4            O=C1CSCN1CCNc1ccnc2cc(Cl)ccc12           0.98
 5  O=C1CSC(c2c(Cl)cccc2Cl)N1CCCNc1ccnc2cc(Cl)ccc12 (stereo not given)           0.39
 6           O=C1CSCN1CCCNc1ccnc2cc(Cl)ccc12           0.96
 7  CC1SCN(CCCCNc2ccnc3cc(Cl)ccc23)C1=O (stereo not given)           0.98
 8  O=C1CSC(c2ccc(Cl)cc2)N1CCCCNc1ccnc2cc(Cl)ccc12 (stereo not given)           0.85
 9           O=C1CCSCN1CCNc1ccnc2cc(Cl)ccc12           0.99
10     O=C1c2ccccc2SCN1CCNc1ccnc2cc(Cl)ccc12           0.94
